# systemName: Dihydroorotate dehydrogenase (quinone), mitochondrial (Plasmodium falciparum (isolate 3D7))
# protocolText: PfDHODH enzyme inhibitors, primary screen, biochemical, C-terminal His tag, absorbance 600 nm (AID 1175);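 note: recombinant parasite enzyme with a five histidine tag at its C terminus; test concentration not given here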
# assayContext: DCIP absorbance 600 nm, higher = more signal, called active from +8 up or from −8 down
We use -0.04 as the dividing line for composite z-score: on or above the line is T, below is F.

| compound | discreteLabel |
| --- | --- |
| COCCOC(=O)N1C(=O)[C@@]2(c3ccccc31)[C@H](C(=O)N1CCc3cc(OC)c(OC)cc3C1)[C@H]1C(=O)O[C@H](c3ccccc3)[C@H](c3ccccc3)N1[C@@H]2c1ccccc1OCCO | F |
| C=CCN1C(=O)[C@]2(O[C@H](CCn3cc(CCO)nn3)[C@@H]([Si](C)(C)c3ccc(OC)cc3)[C@@H]2C)c2cc(NC(=O)c3ccc(OC)cc3)ccc21 | T |
| CC(c1ccccc1)C(O)C1C=CC2C(=O)N(C)C(=O)C2N1N(c1ccccc1)c1ccccc1 (configuration not stated) | T |
| C#CCCCON=C1C[C@@H](O)[C@@H](O)[C@@H]2[C@@H]3C(=O)N(Cc4ccc5c(c4)OCO5)C(=O)[C@@H]3CC[C@H]12 | F |
| C=CCc1cccc([C@H]2N[C@H](C(=O)O)CC[C@@H]2C)c1 | T |
| [N-]=[N+]=NCc1ccccc1C[C@@]1(C(=O)O)N=C(c2ccc(OCCCO)cc2)O[C@@H]1c1ccccc1N=[N+]=[N-] | T |
| CO[C@H]1COC(=O)[C@H](CCSC)NC(=O)CC=C[C@@H](C)COC(=O)[C@@H](OCc2ccccc2)C=C[C@@H]1C | T |

----------
# systemName: E3 ubiquitin-protein ligase XIAP (Homo sapiens)
# protocolText: XIAP binders, primary screen, biophysical, small-molecule microarray, fluorescence 635 nm (AID 1181);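 note: score merges 667 nm emission and signal to noise over triplicate slides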
# assayContext: small-molecule microarray binding, higher = more signal
// composite z-score lookup, one value per entry

| molecule | systemName | composite z-score |
| --- | --- | --- |
| CO[C@@H]1COC(=O)CC=C[C@@H](C)[C@H](OC)COC(=O)CC=C[C@H]1C | E3 ubiquitin-protein ligase XIAP (Homo sapiens) | 0.0891 |
| O=C1O[C@@H](c2ccccc2)[C@@H](c2ccccc2)N2[C@@H](c3ccc(OCCO)cc3)[C@]3(C(=O)Nc4ccc(C#CCCO)cc43)[C@@H](C(=O)N3CCN(c4ncccn4)CC3)[C@H]12 | E3 ubiquitin-protein ligase XIAP (Homo sapiens) | 0.19 |
| CCCC=C(CCC)[C@@H](NS(=O)(=O)c1cccc(C(F)(F)F)c1)c1ccc(C(=O)OC)cc1 | E3 ubiquitin-protein ligase XIAP (Homo sapiens) | 0.0506 |
| C=CCNC(=O)[C@@H]1[C@H]2C(=O)O[C@H](c3ccccc3)[C@H](c3ccccc3)N2[C@H](c2ccc(OCCO)cc2)[C@@]12C(=O)N(C(=O)OCCOC)c1ccc(C#CC3(O)CCCCCC3)cc12 | E3 ubiquitin-protein ligase XIAP (Homo sapiens) | 0.276 |
| Cc1ccc([C@@H]2CC=C(C(=O)O)[C@H](c3ccccc3)N2S(=O)(=O)c2ccc(C)cc2)cc1 | E3 ubiquitin-protein ligase XIAP (Homo sapiens) | -0.202 |
| COc1cc(Cc2cc3c(c(CCc4ccccc4)n2)[Si](C(C)C)(C(C)C)OC3)cc(OC)c1OC | E3 ubiquitin-protein ligase XIAP (Homo sapiens) | 0.107 |
| C=CCOC(=O)[C@@H]1[C@H]2C(=O)O[C@H](c3ccccc3)[C@H](c3ccccc3)N2[C@H](c2ccc(OCCOC(=O)[C@H]3C[C@H]4C(=O)N5CCC[C@H]5C(=O)N4[C@H]3c3ccc(O)cc3)cc2)[C@@]12C(=O)Nc1ccccc12 | E3 ubiquitin-protein ligase XIAP (Homo sapiens) | -0.217 |
| CN(C)C(=O)[C@@]1(Cc2ccccc2N=[N+]=[N-])N=C(c2ccc(OCCCO)cc2)O[C@H]1c1ccccc1CN=[N+]=[N-] | E3 ubiquitin-protein ligase XIAP (Homo sapiens) | 0.229 |
| CO[C@H]1O[C@H](CO)[C@@H](OC(=O)CCc2ccccc2)[C@@H]2OC(=O)[C@H](Cc3cccc(Br)c3)C/C=C/C[C@@H](Cc3cccc(Br)c3)C(=O)O[C@@H]12 | E3 ubiquitin-protein ligase XIAP (Homo sapiens) | 0.0356 |
| CC(C)[Si](OCC[C@H]1O[C@]2(C(=O)N(Cc3ccccc3)c3ccccc32)[C@@H](C)[C@@H]1[Si](C)(C)O)(C(C)C)C(C)C | E3 ubiquitin-protein ligase XIAP (Homo sapiens) | -0.142 |
| CC(C)[C@H]1NC(=O)[C@@]23C(=O)N[C@@H](Cc4ccccc4)C2[C@H](C)[C@@]2(C)O[C@H]2C3/C=C/C/C=C\CNC(=O)[C@H](C)NC1=O (some centres not stated) | E3 ubiquitin-protein ligase XIAP (Homo sapiens) | -0.129 |
| O=C/C=C/c1ccccc1Cl | E3 ubiquitin-protein ligase XIAP (Homo sapiens) | -0.0393 |
| Cc1ccccc1C(O)C1C=CC2C(=O)N(c3ccccc3)C(=O)C2N1Nc1ccc(C#N)cc1 (configuration not stated) | E3 ubiquitin-protein ligase XIAP (Homo sapiens) | 0.198 |
| COC(=O)[C@@]1(Cc2ccccc2)[C@H]2c3cc(C(=O)N4CCCC4)n(CCN4CNCC4=O)c3C[C@H]2CN1C(=O)c1ccccc1 | E3 ubiquitin-protein ligase XIAP (Homo sapiens) | 0.414 |
| CC(C)C[C@@H]1NC(=O)[C@H](CC(C)C)NC(=O)[C@@]23C(=O)N[C@@H](Cc4ccccc4)C2[C@H](C)[C@@]2(C)O[C@H]2C3/C=C/CC/C=C/CNC1=O (some centres not stated) | E3 ubiquitin-protein ligase XIAP (Homo sapiens) | -0.02 |
| CCOC(=O)C1=CC[C@@H](c2ccccc2)N(S(=O)(=O)c2ccc(C)cc2)[C@H]1C | E3 ubiquitin-protein ligase XIAP (Homo sapiens) | 0.0512 |
| O=C1OCCC=C[C@H]2OC34C=CCN(Cc5ccccc5)C(=O)[C@H]3N(CCO)C(=O)[C@@H]4C12 (some centres not stated) | E3 ubiquitin-protein ligase XIAP (Homo sapiens) | -0.569 |
| C[C@@H]1NC(=O)CC=C[C@@H](C)[C@@H]2C=C[C@H](O)[C@@H](COC(=O)[C@H](C)NC(=O)CC=C[C@@H](C)[C@@H]3C=C[C@H](O)[C@@H](COC1=O)O3)O2 | E3 ubiquitin-protein ligase XIAP (Homo sapiens) | -0.135 |
| C=CC[C@@]12N=C(c3ccc(OCCCO)cc3)O[C@@H]1c1ccccc1CN(Cc1ccccc1)C2=O | E3 ubiquitin-protein ligase XIAP (Homo sapiens) | -0.0473 |
| C=CCC1=C[C@H]2[C@H]([C@@H]3C=C[C@]2(CC=C)C(=O)[C@]32CO2)[C@@]2(CO2)C1=O | E3 ubiquitin-protein ligase XIAP (Homo sapiens) | 0.147 |
| CC(C)(C)OC(=O)CC[C@]1(C(=O)NCCN2CCOCC2)N=C(c2ccc(OCCCO)cc2)O[C@H]1c1ccccc1CN=[N+]=[N-] | E3 ubiquitin-protein ligase XIAP (Homo sapiens) | 0.564 |
| COc1cccc([C@@H]2[C@@H](C)CC[C@H]3C(=O)N4[C@H](c5cccc(OC)c5)[C@@H](C)CC[C@H]4C(=O)N23)c1 | E3 ubiquitin-protein ligase XIAP (Homo sapiens) | -0.0599 |
